All values here come from paper PMC9226319.

test: in vivo; details: male, Sprague Dawley, rat, iv, 4.84 µmol/kg, plasma concentration, IV 4.84 µmol/kg, 4 h, individual animals
recorded-metric: concentration at 4 h

Task: I am curious: what concentration at 4 h value has been reported for C=CCN1CC[C@]23c4c5ccc(O)c4O[C@H]2[C@@H](OCCOCCOCCOCCOCCOCCOCCOC)CC[C@@]3(O)[C@H]1C5 [Naloxegol, reference compound] ?
Result: 9.2 nM

----------
test: in vivo; conditions: male, Sprague Dawley, rat, sc, percentage brain to plasma ratio
recorded-metric: Kp

Task: I am curious: what Kp value has been reported for COc1ccc2c3c1O[C@H]1[C@@H](OCc4cn(CCNCCCCCCOc5cc(OCCCc6c(C)n[nH]c6C)cc(C(=O)O)c5)nn4)CC[C@@]4(O)[C@@H](C2)N(C)CC[C@]314 [AG10-L2-Oxy] ?
Result: 0
